Tested on: NCI/ADR-RES ovarian
Assay: NCI-60 one-dose screen, 48 h (100 = growth as untreated, 0 = no growth, -100 = all killed)
Conditions: 10 µM unless noted
This is part of a sample that, as a whole, favours compounds with a hit. Of some 83,000 tested, about 20% had one in any assay.

compound	unit info	growth
O=C(/C=C/Nc1ccc(S(=O)(=O)Nc2ncccn2)cc1)c1ccc(N=Cc2c(O)[nH]c3ccccc23)cc1	%	110
CCOC(=O)c1ccccc1NC1=C(Cl)C(=O)c2nc(C)ccc2C1=O	%	93.9
Brc1cccc(-c2cc(-c3cnc4c(c3)OCCO4)n[nH]2)c1	%	10.9
CC(C)NC(=O)c1cc(-c2ccc(NC(=O)Nc3ccc(F)cc3)cc2)nc2cccnc12	%	104
O=C(CCCCCCN1CC(=O)N2[C@@H](c3ccccc3Br)c3[nH]c4ccccc4c3C[C@H]2C1=O)NO	%	83.7
CC1CCN(CC(=O)Nn2c(COc3ccccc3)nc3ccccc3c2=O)CC1	%	71.6
C=C(C)[C@@H]1CC[C@]2(COP(=O)(OCC)OCC)CC[C@]3(C)[C@H](CC[C@@H]4[C@@]5(C)CC[C@H](OP(=O)(OCC)OCC)C(C)(C)[C@@H]5CC[C@]43C)[C@@H]12	%	31.8
O=C1CSC(c2cn(-c3ccccc3)nc2-c2ccc(Cl)cc2)N1c1ccccc1 (stereo not drawn)	%	104
CC(=O)N(O)CCCCCNC(=O)CCC(=O)N(O)CCCCCNC(=O)CCC(=O)N(O)CCCCCN(CCCCCCCCCC[P+](c1ccccc1)(c1ccccc1)c1ccccc1)CCCCCCCCCC[P+](c1ccccc1)(c1ccccc1)c1ccccc1	%	73.5
CSc1ccc(/C(=N/N=C(N)N)c2ccc(F)cc2)cc1	%	4.1
C#CCN(C)CCCOc1ccc(NCc2ccc(C(=O)NO)cc2)cc1Cl	%	7.57
CC1=C(C)C(=O)C(Nc2ccc(C)c(C)c2)=C(Br)C1=O	%	82.7
FC(F)(F)c1cc(Br)cc(-c2cc(-c3ccc4c(c3)OCCO4)[nH]n2)c1	%	9.71
C[C@@H]1OCC2(CCN(c3cnc(C(=O)Nc4cc(F)cc5cccnc45)cn3)CC2)[C@@H]1N	%	76.4
CCOC(=O)c1c(N)c(C#N)cn1Cc1ccc(Cl)cc1Cl	%	61.5
COc1ccc(C2CC(c3cccc(OCCCCOc4cccc(C5=NN(C(C)=O)C(c6ccc(OC)cc6)C5)c4)c3)=NN2C(C)=O)cc1 (stereo not drawn)	%	75.7
Cc1cc(=O)[nH]c(O)c1C#N	%	106
COc1ccc(C(=O)c2c(N)c(C#N)cn2-c2ccc(Cl)cc2Cl)cc1	%	86.7

---

Test system: KM12 colon
Assay: NCI-60 one-dose screen, 48 h
Conditions: 10 µM unless noted
The panel holds about 83,000 compounds, 20% with a hit somewhere; the sample as a whole holds those more often. The source made the active and inactive calls. Rule for the calls: active = growth percent below 10; inactive = the rest.
Classes used: y (active), n (inactive)

molecule smiles	class
Clc1ccc2[nH]cc(-c3nn4cc(-c5cccnc5)nc4s3)c2c1	n
N#Cc1c(-c2cccs2)c(C#N)c(=O)n(Cc2nc3ccccc3[nH]2)c1N	n
Cc1ccc(-c2csc(N/N=C/c3cccs3)n2)cc1	n
C[C@@H]1OCC2(CCN(c3cnc(C(=O)Nc4cc(F)cc5cccnc45)cn3)CC2)[C@@H]1N	n
Cc1ccccc1Nc1nc(SC(C)C)nc(-c2ccccc2)c1C#N	n
COC(=O)CCSC1=C(C)C(=O)c2ccccc2C1=O	n
O=C(NNc1nc2cc(F)cc(F)c2n2cccc12)c1cccnn1	n
Cc1ccc(C(=O)Nc2ccc(CNCCN3CCNCC3)c(C(F)(F)F)c2)cc1C#Cc1cnc2cccnn12	y
C#C[C@]1(O)CC[C@H]2[C@@H]3CC=C4c5sc(Nc6ccc(C)cn6)nc5CC[C@]4(C)[C@H]3CC[C@@]21C	y
O=C(/C=C/c1ccc(F)cc1)Nc1cccc2cccnc12	n
C#CCOc1ccc(/C=N/Nc2nc(-c3ccc(OC)cc3)cs2)cc1	n
Fc1cccc(Cl)c1/C=N/Nc1nc(N/N=C/c2c(F)cccc2Cl)nc(N2CCCCC2)n1	n
CC1(C)CC[C@]23CC[C@]4(C)[C@H](CC[C@@H]5[C@@]6(C)CC[C@H](NCO)C(C)(C)[C@@H]6CC[C@]54C)[C@H]2[C@H]1OC3	y
CC1(C)CC[C@]2(C(=O)O)CC[C@]3(C)C(=CC[C@@H]4[C@@]5(C)CC[C@H](NOCCCN)C(C)(C)[C@@H]5CC[C@]43C)[C@@H]2C1	n
Cc1ccc(NC(=O)/C=C/c2ccc(OCCCOc3ccc4c(C)cc(=O)oc4c3)cc2)cc1	n
COc1ccc2[nH]cc(-c3nc(N)nnc3-c3cn(C)c4ccc(Br)cc34)c2c1	n
Cc1ccc(NC(=O)Nc2nc3ccc([N+](=O)[O-])cc3s2)cc1	y
CC1CCN(CC(=O)Nn2c(COc3ccccc3)nc3ccccc3c2=O)CC1	n
Brc1cccc(-c2cc(-c3cnc4c(c3)OCCO4)n[nH]2)c1	n

---

Test system: SK-MEL-28 melanoma
Assay: NCI-60 one-dose screen, 48 h (100 = growth as untreated, 0 = no growth, -100 = all killed)
Settings: 10 µM unless noted
Method: Growth inhibition of the SK-MEL-28 human tumor cell line is measured as a screen for anti-cancer activity. Cells are grown in 96 well plates and exposed to the test compound for 48 hours. Compounds are tested at a single concentration, which is 10^-5 M for most compounds. The reported endpoint is percent growth (GI% or GIPRCNT), where numbers from 0 - 100% represent growth inhibition, and numbers from -100% - 0 represent cell death. For example, a value of 40 represents 60% growth inhibition. […]
This is part of a sample that, as a whole, favours compounds with a hit. Of some 83,000 tested, about 20% had one in any assay. Activity calls are given as the source filed them. How the source made its calls: active means growth percent below 10; inactive means the rest.
growth values for the compounds below.

compound	growth
Cc1ccc2c(n1)C(=O)C(Cl)=C(Nc1ccccc1C(=O)OC(C)(C)C)C2=O	34.6% (inactive)
CN1CCN(Cc2ccc(/C=N/Nc3ccnc4cc(Cl)ccc34)cc2)CC1	98% (inactive)
CC(=O)OC[C@]12CC[C@@H](C(=O)/C=C/c3cccnc3)[C@@H]1[C@H]1CC[C@@H]3[C@@]4(C)CC[C@H](OC(C)=O)C(C)(C)[C@@H]4CC[C@@]3(C)[C@]1(C)CC2	-56.4% (active)
Nc1ncc(-c2ccc3ncnc(NCc4ccccc4)c3c2)cn1	57.6% (inactive)
CCOC(=O)C1=C(C)NC(C)=C(C(=O)OCc2ccccc2)C1c1cccc(C#N)c1 (centres undefined)	51.2% (inactive)
O=C(N/N=C\c1ccc([N+](=O)[O-])cc1)c1ccc2nc(-c3ccc(Br)cc3)[nH]c2c1	36.8% (inactive)
C#Cc1nc(/C=C/CCCCCCC(=O)NO)cs1	75.4% (inactive)
CCc1cc(OC(=O)N2CCC(N3CCCCC3)CC2)ccc1Nc1cc(-c2ccc(-n3cccn3)cc2)[nH]n1	-60.7% (active)
O=S(=O)(Oc1ccc(-c2cn3ccoc3n2)cc1)c1cccc(C(F)(F)F)c1	106% (inactive)

---

growth values for the compounds below.
System: SF-268 CNS
Test: NCI-60 one-dose screen, 48 h (100 = growth as untreated, 0 = no growth, -100 = all killed)
Settings: 10 µM unless noted
The panel holds about 83,000 compounds, 20% with a hit somewhere; the sample as a whole holds those more often.
measured property: growth (%)

molecule smiles	unit info	recorded result
CC(=O)Nc1ccccc1-c1nc2ccccc2s1	%	101
CCN(CC)CCOc1ccc(C(=C(c2ccccc2)C2CCCC2)c2ccc(OCCN(CC)CC)cc2)cc1	%	25.5
C#CCN(C)CCCOc1ccc(NCc2ccc(/C=C/C(=O)NO)cc2)cc1Cl	%	12.9
CCCCCCNC(=O)Oc1ccc(/C(=C(/C)c2ccc(Cl)cc2)c2ccc(OCCN3CCCCCC3)cc2)cc1	%	77.2
CN1CCN(CCNc2nc(-c3cccc(NS(=O)(=O)c4cccc5c(N(C)C)cccc45)c3)cs2)CC1	%	82.7

---

System: CCRF-CEM leukemia
Experiment: NCI-60 one-dose screen, 48 h (100 = growth as untreated, 0 = no growth, -100 = all killed)
Details: 10 µM unless noted
About 83,000 compounds went through this panel and 20% of them were active in at least one assay; those are over-represented in the sample as a whole.

molecule	growth (%)
CN1CCN(c2ccc(Nc3nc(NCCCNS(=O)(=O)c4ccc(Cl)cc4)c4sccc4n3)cc2)CC1	13
COC(=O)N1CCN(CCNCc2ccc(NC(=O)c3ccc(C)c(C#Cc4cnc5cccnn45)c3)cc2C(F)(F)F)CC1	10.8
Brc1ccc(-c2cc(-c3ccc4c(c3)OCCO4)n[nH]2)s1	18.1
O=C(/C=C/c1csc(Br)n1)NO	21.2
O=C(O)CC1CCN(c2ccc3nnc(Cl)n3n2)CC1	111
CC[C@]12CC(C(=O)OC)=C3Nc4ccccc4[C@@]34CCN(C14)[C@@H]1c3cc4c(cc3O[C@@H]1[C@H]2O)NC1=C(C(=O)OC)C[C@@]2(CC)C3N(CC[C@@]143)C[C@H]1O[C@H]12 (stereo partly drawn)	12.6
CC(=O)N1N=C(c2cc3ccccc3oc2=O)CC1c1cn(-c2ccccc2)nc1-c1ccc(C)cc1 (stereo not drawn)	102
C=C(C)[C@@H]1CC[C@]2(C(=O)NC3CCCCC3)CC[C@]3(C)[C@H](CC[C@@H]4[C@@]5(C)CC[C@H](N)C(C)(C)[C@@H]5CC[C@]43C)[C@@H]12	79.4
